Biological target: T1, hGCGR-mmh (human)
T1 construct: also called REGN547; monovalent hGCGR
T1 chain: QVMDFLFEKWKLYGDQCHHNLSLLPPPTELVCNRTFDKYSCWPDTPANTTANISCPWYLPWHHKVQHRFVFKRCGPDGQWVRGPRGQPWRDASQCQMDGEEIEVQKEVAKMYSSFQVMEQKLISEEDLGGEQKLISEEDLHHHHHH
Test: SPR Biacore T100, 37C, mAb captured, antigen flowed
quantity: koff (s⁻¹)
Just the number in s⁻¹, nothing appended.

Query: Param item = H4H1327P (antibody, V domains shown, also called anti-GCGR (hIgG4) antibody designated H4H1327P) VH: EVQLVESGGGLVQPGGSLRLSCAASGFTFSNYLMNWVRQAPGKGLEWLANIQEDGIEKYYVDSVKGRFTISRDNAKNSLYLQMNSLRAEDTAVYYCAREPSHYDILTGYDYYYGMDVWGQGTTVTVS VL: DIQMTQSPSSLSASVGDRVTITCRASQGIRNDLGWYQQKPGKAPKRLIYAASSLQSGVPSRFSGSGSGTEFILTVSSLQPEDFATYYCLQYNSNPFTFGPGTKVDIK ; retrieve measured koff.
Reply: 0.002

Query: Param item = H4H1339P (antibody, V domains shown, Fully human anti-GCGR antibody; the controls are called isotype-matched hIgG4) VH: EVQLVESGGGMVQPGGSLRLSCAASGFTSSNYDMHWVRQATGKGLEWVSSIDTAGDTYYPDSVKGRFIISRENAKNSLYLQMNSLRAGDTAVYYCTREPRNYEILTGHYHYHGMDIWGQGTTVTVS VL: AIQMTQSPSSLSASVGDRVTITCRASQAIRNDLGWYQQKPGKAPKLLIYTAFSLQSGVPSRFSGSKSGTDFTLTISSLQPEDFATYYCLQDYTNPRTFGQGTKVEIK ; retrieve measured koff.
Reply: 0.0043
